Test: Pharmacokinetic analysis in beagles after oral administration
Format: in vivo, beagle
Conditions: beagle, dog, plasma; oral 200 mg/kg (G4), mean; read-out: tmax (time of highest plasma concentration)
value kind: Tmax (min)
One number for each entry, in min.

What value of Tmax has been recorded for this entry: CN1C(=O)NC(=O)C1O (stereo not shown)
27

###

Assay: 13-week repeated oral toxicity: weight measurement
Format: in vivo, beagle
Settings: 1,000 mg/kg repeated oral (G4), female, week 10, mean
value kind: Weight, Mean
Could you write the number and then its unit?

What value of Weight, Mean has been recorded for this entry: CN1C(=O)NC(=O)C1O (stereo not shown) [KBP-001]
0.8 kg

###

Test: 13-week repeated oral toxicity: weight measurement
Assay type: in vivo, beagle
Settings: 1,000 mg/kg repeated oral (G4), male, week 1, mean
value kind: Weight, Mean

What value of Weight, Mean has been recorded for this entry: CN1C(=O)NC(=O)C1O (stereo not shown)
10.2 kg

###

Assay: 13-week repeated oral toxicity: weight measurement
Type: in vivo, beagle
Conditions: 500 mg/kg repeated oral (G3), female, week 3, mean
value kind: Weight, Mean (kg)
One number for each entry, in kg.

What value of Weight, Mean has been recorded for this entry: CN1C(=O)NC(=O)C1O (stereo not shown)
9.6

###

Assay: 13-week repeated oral toxicity: weight measurement
Format: in vivo, beagle
Conditions: 1,000 mg/kg repeated oral (G4), male, week 6, mean
value kind: Weight, Mean (kg)
One number for each entry, in kg.

What value of Weight, Mean has been recorded for this entry: CN1C(=O)NC(=O)C1O (stereo not shown) [KBP-001]
10

###

Tested on: beagles
Assay: 13-week repeated oral toxicity: urine test
Format: in vivo, beagle
Conditions: urine, before administration, 200 mg/kg group, male, individual animal; 200 mg/kg
value kind: Specific gravity
One number for each entry.

What value of Specific gravity has been recorded for this entry: CN1C(=O)NC(=O)C1O (stereo not shown) [KBP-001]
1.03

###

Tested on: beagles
Assay: 13-week repeated oral toxicity: urine test
Assay type: in vivo, beagle
Settings: urine, before administration, 500 mg/kg group, male, group mean
value kind: Specific gravity
Numbers only.

What value of Specific gravity has been recorded for this entry: CN1C(=O)NC(=O)C1O (stereo not shown)
1.03

###

Test: 13-week repeated oral toxicity: weight measurement
Assay type: in vivo, beagle
Settings: 500 mg/kg repeated oral (G3), female, week 9, mean
Description: During the 13-week test period starting from the day before administration, the weight was measured a total of 15 times before administration (pre), before administration on the day of administration, and every week over the 13-week test period after the first administration at a predetermined time (remaining feed measurement time) before administration of the test substance (on every Tuesday during the test period).
value kind: Weight, Mean

What value of Weight, Mean has been recorded for this entry: CN1C(=O)NC(=O)C1O (stereo not shown)
9.8 kg

###

Experiment: 13-week repeated oral toxicity: weight measurement
Assay type: in vivo, beagle
Conditions: 500 mg/kg repeated oral (G3), male, week 4, mean
value kind: Weight, Mean (kg)
One number for each entry, in kg.

What value of Weight, Mean has been recorded for this entry: CN1C(=O)NC(=O)C1O (stereo not shown)
10

###

Test: Pharmacokinetic analysis in beagles after oral administration
Type: in vivo, beagle
Details: beagle, dog, plasma; oral 10 mg/kg (G1), mean; read-out: tmax (time of highest plasma concentration)
value kind: Tmax

What value of Tmax has been recorded for this entry: CN1C(=O)NC(=O)C1O (stereo not shown) [KBP-001]
36 min

###

Assay: 13-week repeated oral toxicity: weight measurement
Assay type: in vivo, beagle
Details: 200 mg/kg repeated oral (G2), female, week 13, mean
value kind: Weight, Mean (kg)
Give bare numbers, in kg.

What value of Weight, Mean has been recorded for this entry: CN1C(=O)NC(=O)C1O (stereo not shown)
9.8

###

Assay: Pharmacokinetic analysis in beagles after oral administration
Format: in vivo, beagle
Conditions: beagle, dog, plasma; oral G3 (100 ng/kg [sic]; text 100 mg/kg), mean; read-out: tmax (time of highest plasma concentration)
value kind: Tmax (min)
Give bare numbers, in min.

What value of Tmax has been recorded for this entry: CN1C(=O)NC(=O)C1O (stereo not shown) [KBP-001]
48

###

Experiment: 13-week repeated oral toxicity: weight measurement
Type: in vivo, beagle
Details: 1,000 mg/kg repeated oral (G4), female, week pre, mean
value kind: Weight, Mean (kg)
Give bare numbers, in kg.

What value of Weight, Mean has been recorded for this entry: CN1C(=O)NC(=O)C1O (stereo not shown)
9.4

###

Test system: beagles
Assay: 13-week repeated oral toxicity: hematological test
Assay type: in vivo, beagle
Details: G2 200 mg/kg group, male (M4-M6, Mean), before administration (day 0); mean
value kind: MCH (pg)
Numbers only, in pg.

What value of MCH has been recorded for this entry: CN1C(=O)NC(=O)C1O (stereo not shown)
21.6

###

Test: 13-week repeated oral toxicity: weight measurement
Assay type: in vivo, beagle
Conditions: 1,000 mg/kg repeated oral (G4), female, week 2, mean
value kind: Weight, Mean (kg)
Answers are plain numbers, in kg.

What value of Weight, Mean has been recorded for this entry: CN1C(=O)NC(=O)C1O (stereo not shown) [KBP-001]
9.3

###

Experiment: 13-week repeated oral toxicity: weight measurement
Assay type: in vivo, beagle
Conditions: 200 mg/kg repeated oral (G2), female, week 4, mean
value kind: Weight, Mean (kg)
Give bare numbers, in kg.

What value of Weight, Mean has been recorded for this entry: CN1C(=O)NC(=O)C1O (stereo not shown)
9.7

###

Test: 13-week repeated oral toxicity: weight measurement
Format: in vivo, beagle
Settings: 1,000 mg/kg repeated oral (G4), female, week 8, mean
value kind: Weight, Mean (kg)
Give bare numbers, in kg.

What value of Weight, Mean has been recorded for this entry: CN1C(=O)NC(=O)C1O (stereo not shown)
9.5

###

Assay: 13-week repeated oral toxicity: weight measurement
Format: in vivo, beagle
Details: 500 mg/kg repeated oral (G3), female, week 10, mean
value kind: Weight, Mean (kg)
Numbers only, in kg.

What value of Weight, Mean has been recorded for this entry: CN1C(=O)NC(=O)C1O (stereo not shown) [KBP-001]
9.8

###

Assay: 13-week repeated oral toxicity: weight measurement
Format: in vivo, beagle
Settings: 200 mg/kg repeated oral (G2), male, week 0, mean
value kind: Weight, Mean

What value of Weight, Mean has been recorded for this entry: CN1C(=O)NC(=O)C1O (stereo not shown)
10.1 kg

###

Experiment: 13-week repeated oral toxicity: weight measurement
Format: in vivo, beagle
Settings: 200 mg/kg repeated oral (G2), male, week 10, mean
value kind: Weight, Mean (kg)
One number for each entry, in kg.

What value of Weight, Mean has been recorded for this entry: CN1C(=O)NC(=O)C1O (stereo not shown)
10.3

###

Assay: 13-week repeated oral toxicity: weight measurement
Format: in vivo, beagle
Conditions: 500 mg/kg repeated oral (G3), male, week 11, mean
Procedure: During the 13-week test period starting from the day before administration, the weight was measured a total of 15 times before administration (pre), before administration on the day of administration, and every week over the 13-week test period after the first administration at a predetermined time (remaining feed measurement time) before administration of the test substance (on every Tuesday during the test period).
value kind: Weight, Mean (kg)
Give bare numbers, in kg.

What value of Weight, Mean has been recorded for this entry: CN1C(=O)NC(=O)C1O (stereo not shown) [KBP-001]
10.1

###

Experiment: 13-week repeated oral toxicity: weight measurement
Type: in vivo, beagle
Conditions: 500 mg/kg repeated oral (G3), male, week 8, mean
Experimental: During the 13-week test period starting from the day before administration, the weight was measured a total of 15 times before administration (pre), before administration on the day of administration, and every week over the 13-week test period after the first administration at a predetermined time (remaining feed measurement time) before administration of the test substance (on every Tuesday during the test period).
value kind: Weight, Mean (kg)
Answers are plain numbers, in kg.

What value of Weight, Mean has been recorded for this entry: CN1C(=O)NC(=O)C1O (stereo not shown)
10.1

###

Tested on: beagles
Assay: 13-week repeated oral toxicity: hematological test
Type: in vivo, beagle
Conditions: G3 500 mg/kg, repeated administration for 13 weeks, male, group mean
value kind: MCH

Request body: readout MCH, system beagles, query CN1C(=O)NC(=O)C1O (stereo not shown) [KBP-001] . Return the value.
23.8 pg

###

System: beagles
Test: 13-week repeated oral toxicity: urine test
Type: in vivo, beagle
Conditions: urine, before administration, 1,000 mg/kg group, female, group mean
value kind: Specific gravity

What value of Specific gravity has been recorded for this entry: CN1C(=O)NC(=O)C1O (stereo not shown)
1.03

###

Test system: beagles
Experiment: 13-week repeated oral toxicity: hematological test
Type: in vivo, beagle
Details: G2 200 mg/kg group, male (M4-M6, Mean), before administration (day 0); mean
value kind: MCV (fL)
Numbers only, in fL.

What value of MCV has been recorded for this entry: CN1C(=O)NC(=O)C1O (stereo not shown)
65.1

###

Test: 13-week repeated oral toxicity: weight measurement
Format: in vivo, beagle
Conditions: 200 mg/kg repeated oral (G2), female, week 2, mean
value kind: Weight, Mean (kg)
Give bare numbers, in kg.

What value of Weight, Mean has been recorded for this entry: CN1C(=O)NC(=O)C1O (stereo not shown) [KBP-001]
9.5
